Reported Activity values for a set of compounds
Tested on: Botrytis cinerea
test name: Antifungal activity against Botryotinia fuckeliana at 50 ug/ml by poisoned food technique
Type: functional
property: Activity

INSERT INTO results (line_notation, value_measured) VALUES
  ('COc1cc(OC)nc(NCc2ccc(Cl)nc2)n1', '40.7%'),
  ('COc1cc(OC)nc(NCc2cnc(Cl)s2)n1', '37%'),
  ('Cc1cc(OC(=O)N2CCOCC2)nc(C(C)C)n1', '18.5%'),
  ('COc1cc(C(=O)Oc2cc(C)nc(C(C)C)n2)cc(OC)c1OC', '14.8%');

----------
Test system: Bipolaris maydis
test name: Antifungal activity against Cochliobolus heterostrophus at 50 ug/ml by poisoned food technique
Type: functional
Reported Activity values for a set of compounds
property: Activity

INSERT INTO results (line_notation, value_measured) VALUES
  ('Cc1cc(OCc2ccc(Cl)nc2)nc(C(C)C)n1', '34.8%'),
  ('COc1cc(OC)nc(NCc2ccc(Cl)nc2)n1', '17.4%'),
  ('Cc1cc(OCc2cnc(Cl)s2)nc(C(C)C)n1', '17.4%'),
  ('Cc1cc(Nc2ccccc2)nc(C(C)C)n1', '26.1%'),
  ('COc1cc(C(=O)Oc2cc(C)nc(C(C)C)n2)cc(OC)c1OC', '26.1%'),
  ('COc1ccc(/C(=C\C(=O)N2CCOCC2)c2ccc(F)cc2)cc1OC', '17.4%'),
  ('Cc1cc(OC(=O)c2ccc(F)cc2)nc(C(C)C)n1', '13%'),
  ('COc1ccc(C(=CC(=O)N2CCOCC2)c2ccc(Cl)cc2)cc1OC', '17.4%'),
  ('Cc1cc(Nc2ccc(OC(F)(F)F)cc2)nc(C(C)C)n1', '39.1%'),
  ('Cc1cc(OC(=O)c2ccc(Cl)cc2)nc(C(C)C)n1', '26.1%'),
  ('Cc1cc(OC(=O)N2CCOCC2)nc(C(C)C)n1', '17.4%'),
  ('Cc1cc(NC2CCCCC2)nc(C(C)C)n1', '13%');
